- assay_system: UniProtKB P30680
- Sequence (P30680 whole entry): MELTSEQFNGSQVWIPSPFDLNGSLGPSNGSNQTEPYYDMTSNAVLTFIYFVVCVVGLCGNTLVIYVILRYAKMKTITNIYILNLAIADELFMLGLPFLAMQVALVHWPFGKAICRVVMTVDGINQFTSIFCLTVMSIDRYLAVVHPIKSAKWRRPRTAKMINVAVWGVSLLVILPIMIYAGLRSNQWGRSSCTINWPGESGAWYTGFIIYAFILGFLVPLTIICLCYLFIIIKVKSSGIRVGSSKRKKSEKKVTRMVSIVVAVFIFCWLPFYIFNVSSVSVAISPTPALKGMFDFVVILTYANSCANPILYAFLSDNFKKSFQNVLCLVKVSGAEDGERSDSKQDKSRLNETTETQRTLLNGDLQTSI
Catalogue of compounds with associated Kd
The reply should be a number in µM, with the unit left off.

See these solved cases before continuing.
CCN(CCC(=O)N1CCN(c2ccc([N+](=O)[O-])cc2)CC1)CCC1c2ccccc2-c2ccccc21 ... 1.82
CN(CCC(=O)N1CCN(c2ccc([N+](=O)[O-])cc2)CC1)CCn1c2ccccc2c2ccccc21 ... 14.5
CN(CCC(=O)N1CCN(c2ccc([N+](=O)[O-])cc2)CC1)CCC1c2ccccc2Sc2ccccc21 ... 6.03

Now let's try a different one.
Prompt: Which Kd is reported for this compound? `CN(CCC(=O)N1CCN(c2ccc3nonc3c2)CC1)CCC1c2ccccc2Oc2ccccc21`
Response: 8.13
